Relative cAMP EC50 by entry:
# target: human glucagon receptor (human) (UniProt P47871)
# Sequence (P47871 26-477): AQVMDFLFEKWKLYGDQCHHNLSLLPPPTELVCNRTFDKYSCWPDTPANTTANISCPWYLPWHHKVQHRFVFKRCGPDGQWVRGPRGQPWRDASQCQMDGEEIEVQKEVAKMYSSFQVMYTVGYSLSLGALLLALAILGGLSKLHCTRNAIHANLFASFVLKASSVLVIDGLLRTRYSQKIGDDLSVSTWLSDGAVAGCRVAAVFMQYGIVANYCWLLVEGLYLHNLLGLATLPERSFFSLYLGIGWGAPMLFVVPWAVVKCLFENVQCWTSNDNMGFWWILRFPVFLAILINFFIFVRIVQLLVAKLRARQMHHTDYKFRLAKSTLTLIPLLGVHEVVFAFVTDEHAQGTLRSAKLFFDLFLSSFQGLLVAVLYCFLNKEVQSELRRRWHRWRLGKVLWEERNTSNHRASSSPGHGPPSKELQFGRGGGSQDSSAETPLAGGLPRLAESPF
# assay.explanation: cell-based or functional assay
Non-standard residues stand in square brackets, D forms with d. No end group written: not given here. αMeL = CC(C)C[C@](C)(N)C(=O)O; Aib = CC(C)(N)C(=O)O
parameter.measured: Relative cAMP EC50

| binder | parameter.measured | obs.value |
| --- | --- | --- |
| YXQGTFTSDFSKXLDKKAQXAFIEYLLAGGPSSGAPPPGGE (acylated Lys, Aib, αMeL, C-terminal amide; synthetic construct; SITE 2: note = 2-Aminoisobutyric Acid; SITE 13: note = alpha-methyl-leucine; SITE 17: note = Lysine is chemically modified through conjugation of the epsilon-amino group of the Lysine side chain with (2-[2-(2-Amino-ethoxy)-ethoxy]-acetyl)-(gamma-Glu)-CO-(CH2) 18-CO2H; SITE 20: n) [Example 15] | Relative cAMP EC50 | 11.1 nM |
| YXQGTXTSDYSILLDKKAQXAFIEYLEEGGPSSGAPPPEEG (synthetic construct; SITE 2: note = 2-Aminoisobutyric Acid; SITE 6: note = alpha-methyl-2-fluoro-L-phenylalanine; SITE 17: note = Lysine is chemically modified through conjugation of the epsilon-amino group of the Lysine side chain with (2-[2-(2-Amino-ethoxy)-ethoxy]-acetyl)-(gamma-Glu)-CO-(CH2) 16-) [Example 399] | Relative cAMP EC50 | 1.51 nM |
| YXQGTFTSDXSQXLDXKAQXAFIEYLIQXGPSSGEPPPSGSEE (non-natural residues; lipidated Lys AEEA-γGlu-C18 diacid; C-term amide; synthetic construct; SITE 2: note = 2-Aminoisobutyric Acid; SITE 10: note = 3-(4-Pyridyl)-L-alanine; SITE 13: note = alpha-methyl-leucine; SITE 16: note = L-ornithine; SITE 17: note = Lysine is chemically modified through conjugation of the epsilon-amino group of the Lysine side chain with (2-[2-(2-) [Example 1096] | Relative cAMP EC50 | 3.94 nM |
| YXQGTFTSDFSKXLDKKAQXAFIEYLLEXGPSSGAPPPSGS (Aib, αMeL, acylated Lys, C-terminal amide; synthetic construct; SITE 2: note = 2-Aminoisobutyric Acid; SITE 13: note = alpha-methyl-leucine; SITE 17: note = Lysine is chemically modified through conjugation of the epsilon-amino group of the Lysine side chain with (2-[2-(2-Amino-ethoxy)-ethoxy]-acetyl)-(gamma-Glu)-CO-(CH2) 18-CO2H; SITE 20: n) [Example 45] | Relative cAMP EC50 | 2.08 nM |
| Y[Aib]QGTFTSDYSI[αMeL]LDKQAAKAFVEWLLAGGPSSGEPPPSEG-NH2 (not fully specified (residue 20)) [Example 305] | Relative cAMP EC50 | 6.73 nM |
| YXQGTFTSDXSQXLDKKAQXAFIEYLLEAGPSSGAPPPSGT (synthetic construct; SITE 2: note = 2-Aminoisobutyric Acid; SITE 10: note = 3-(4-Pyridyl)-L-alanine; SITE 13: note = alpha-methyl-leucine; SITE 17: note = Lysine is chemically modified through conjugation of the epsilon-amino group of the Lysine side chain with (2-[2-(2-Amino-ethoxy)-ethoxy]-acetyl)) [Example 823] | Relative cAMP EC50 | 7.75 nM |
